# measured-on: T1, LIN7B, Q9HAP6
# T1 sequence (Q9HAP6 88-185, limits assumed, looked up): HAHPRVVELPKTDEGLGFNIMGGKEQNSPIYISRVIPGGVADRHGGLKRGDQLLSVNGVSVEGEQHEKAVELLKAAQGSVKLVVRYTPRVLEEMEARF
# procedure-details: holdup assay
# Design: key: below the threshold = too weak to quantify, mostly under pKd 3.1 to 4
# condition-parameters: plain residues with an end cap or a label only (N-terminal biotin on a linker: ado-ado)
value-type: pKd

- binder: "DFKHTKSFII [JAM2, P57087]"
  result-number: 3.63
- binder: "NNMAFETTHF [SLC5A12, Q1EHB4]"
  result-number: 3.62
- binder: "MLPANYVEAI [NEB, P20929]"
  result-number: 3.69
- binder: "GSQSQVETEA [FKBP4, Q02790]"
  result-number: 3.62
- binder: "DLLGGGSDSI [TNRC6B, Q9UPQ9]"
  result-number: 3.61
